Tgt: EGFR on EGFR positive non-small cell lung cancer cells NCI-H1650 (UniProt P00533 25-1210)
Assay Details: cell-based or functional assay
Endpoint Name: H1650 GFP Flourescence EC50 (µg/mL)
Numbers only, in µg/mL.

Binder	Reported Result
AbA-ZZ (antibody, human IgG1, kappa, V domains shown, synthon ZZ on reduced interchain cysteines; average DAR 1.3 per ADC) VH: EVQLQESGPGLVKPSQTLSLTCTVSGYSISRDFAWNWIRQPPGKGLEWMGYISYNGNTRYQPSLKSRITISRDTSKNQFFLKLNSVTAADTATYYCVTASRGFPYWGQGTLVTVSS VL: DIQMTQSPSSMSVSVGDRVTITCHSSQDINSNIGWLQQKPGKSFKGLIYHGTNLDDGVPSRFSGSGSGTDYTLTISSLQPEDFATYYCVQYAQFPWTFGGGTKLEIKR	1.18
AbK-SR (antibody, human IgG1, kappa, V domains shown, synthon SR on reduced interchain cysteines; average DAR 2.3 per ADC) VH: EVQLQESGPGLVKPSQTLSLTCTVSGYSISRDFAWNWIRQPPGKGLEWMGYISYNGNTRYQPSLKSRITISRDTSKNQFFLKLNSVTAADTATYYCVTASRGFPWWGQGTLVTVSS VL: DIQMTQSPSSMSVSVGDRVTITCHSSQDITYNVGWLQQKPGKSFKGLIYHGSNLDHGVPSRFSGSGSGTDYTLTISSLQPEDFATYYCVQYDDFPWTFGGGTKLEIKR	1.36
AbB-TX (antibody, human IgG1, kappa, V domains shown, synthon TX on reduced interchain cysteines; average DAR 2.2 per ADC) VH: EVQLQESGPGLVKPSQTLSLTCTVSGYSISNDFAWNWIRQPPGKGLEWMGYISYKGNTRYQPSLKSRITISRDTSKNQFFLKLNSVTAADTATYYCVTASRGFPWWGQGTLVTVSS VL: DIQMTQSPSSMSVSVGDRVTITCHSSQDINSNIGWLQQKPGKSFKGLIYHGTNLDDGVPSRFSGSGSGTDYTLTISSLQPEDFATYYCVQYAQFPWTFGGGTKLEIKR	3.72
AbA-SE (antibody, human IgG1, kappa, V domains shown, synthon SE on reduced interchain cysteines; average DAR 2.8 per ADC) VH: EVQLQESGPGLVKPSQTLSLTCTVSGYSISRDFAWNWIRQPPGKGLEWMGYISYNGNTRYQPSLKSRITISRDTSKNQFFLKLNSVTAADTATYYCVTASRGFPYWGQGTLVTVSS VL: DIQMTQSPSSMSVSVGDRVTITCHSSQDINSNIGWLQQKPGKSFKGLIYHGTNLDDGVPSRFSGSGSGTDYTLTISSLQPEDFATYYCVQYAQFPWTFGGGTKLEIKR	4.23

Turning now to a further binder:
Looking up AbG-YY (antibody, human IgG1, kappa, V domains shown, synthon YY on reduced interchain cysteines; average DAR 2.2 per ADC) VH: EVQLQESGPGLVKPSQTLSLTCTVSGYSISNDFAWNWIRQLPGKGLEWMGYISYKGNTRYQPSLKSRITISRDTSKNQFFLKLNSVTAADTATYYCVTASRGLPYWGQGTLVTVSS VL: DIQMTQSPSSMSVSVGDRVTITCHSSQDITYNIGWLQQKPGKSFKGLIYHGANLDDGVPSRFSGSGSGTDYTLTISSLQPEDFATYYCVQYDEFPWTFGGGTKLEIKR , I found its H1650 GFP Flourescence EC50 recorded as 1.1
